What follows is a record of pIC50 for Human immunodeficiency virus type 1 protease (Human immunodeficiency virus 1).
pIC50: −log10 of the molar value.
METRIC: pIC50

>>> measured_value("CC(C)c1ccccc1SC1=C(O)OC(CCC(=O)N2CCN(C(=O)OC(C)(C)C)CC2)(c2ccccc2)CC1=O (stereo not given)")
5.90

P: CC(C)c1ccccc1SC1=C(O)OC(CCC(=O)N2CCSCC2)(c2ccccc2)CC1=O (stereo not given)
Q: CC(C)c1ccccc1SC1=C(O)OC(CCCC(=O)NCCc2ccccc2)(c2ccccc2)CC1=O (stereo not given)
R: CC(C)c1ccccc1SC1=C(O)OC(CCCCC(N)=O)(c2ccccc2)CC1=O (stereo not given)
S: CC(C)c1ccccc1SC1=C(O)OC(CCCC(=O)N2CCNCC2)(c2ccccc2)CC1=O (stereo not given)
Q: Please put the entries in order of rising pIC50. Respond with an ordered listing of the labels, as requested.
A: P, S, Q, R
